- protocol-details: Visual (turbidity) solubility of DEET in IPA and water
- Type: physicochemical
- assay-setup: 30% IPA in water, aqueous with cosolvent or surfactant or cyclodextrin, thermodynamic from solid, 30% IPA in water; read-out: limit of DEET solubility
measured-quantity: solubility at 5 seconds (mg/mL)
Entry rule: numbers only, all in mg/mL.

The molecule listed as CCN(CC)C(=O)c1cccc(C)c1 [DEET, N,N-diethyl-m-toluamide] shows solubility at 5 seconds equal to 115

====

- protocol-details: Visual (turbidity) solubility of DEET in IPA and water
- Type: physicochemical
- assay-setup: 40% IPA in water, aqueous with cosolvent or surfactant or cyclodextrin, thermodynamic from solid, 40% IPA in water; read-out: limit of DEET solubility
measured-quantity: solubility at 5 seconds (mg/mL)
The answer is to be given in mg/mL; state only the numeric part.

Input CCN(CC)C(=O)c1cccc(C)c1 [DEET, N,N-diethyl-m-toluamide] . Output solubility at 5 seconds: 200

This collection of values is drawn from patent US20030161866A1.
